System: Crude diglycosidase
Experiment: Examination of substrate concentration in the conversion into isoflavone aglycons by diglycosidase using soybean materials;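 note: percent of the isoflavone family total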
Type: biochemical, Penicillium multicolor IAM7153
Details: soymilk, substrate concentration 30%, heat treatment of enzyme no, reaction time 6 h
Readout name: Decomposition efficiency: ratio of each glycoside/aglycon within its isoflavone family

>>> endpoint_value("COc1cc2c(=O)c(-c3ccc(O)cc3)coc2cc1O[C@@H]1O[C@H](COC(C)=O)[C@@H](O)[C@H](O)[C@H]1O [acetyl-glycitin]")
"not detected"
>>> endpoint_value("COc1cc2c(=O)c(-c3ccc(O)cc3)coc2cc1O[C@@H]1O[C@H](COC(=O)CC(=O)O)[C@@H](O)[C@H](O)[C@H]1O [malonylglycitin, 6″-O-malonylglycitin]")
"7.7%"
>>> endpoint_value("O=c1c(-c2ccc(O)cc2)coc2cc(O[C@@H]3O[C@H](CO)[C@@H](O)[C@H](O)[C@H]3O)ccc12 [daidzin]")
"not detected"
>>> endpoint_value("CC(=O)OC[C@H]1O[C@@H](Oc2cc(O)c3c(=O)c(-c4ccc(O)cc4)coc3c2)[C@H](O)[C@@H](O)[C@@H]1O [acetyl-genistin]")
"not detected"
>>> endpoint_value("O=c1c(-c2ccc(O)cc2)coc2cc(O[C@@H]3O[C@H](CO)[C@@H](O)[C@H](O)[C@H]3O)cc(O)c12 [genistin]")
"not detected"

Field: next compound
Task: Query (compound): CC(=O)OC[C@H]1O[C@@H](Oc2ccc3c(=O)c(-c4ccc(O)cc4)coc3c2)[C@H](O)[C@@H](O)[C@@H]1O [acetyl-daidzin] ; field requested: Decomposition efficiency: ratio of each glycoside/aglycon within its isoflavone family
Output: not detected

----------
Test system: Diglycosidase derived from A. fumigatus
Assay: Reactivity toward various isoflavone glycosides (HPLC)
Format: biochemical, Aspergillus fumigatus
Parameters: unit not given here
Settings: Reaction time 3 h; 55 °C, pH 4.0
Method: Diglycosidase was diluted with an acetate buffer of pH 4.0 to prepare a 0.75 AU/mL enzyme solution. […] The reaction was carried out at 55° C. and isolation of an aglycon isoflavone from an isoflavone glycoside in the reaction mixture was detected by HLPC at 0, 1, 3, and 6 hours of the reaction. […]
I'd appreciate it if you could supply aglycon values for the items below.

Task: What value of aglycon has been recorded for this entry: O=c1c(-c2ccc(O)cc2)coc2cc(O[C@@H]3O[C@H](CO)[C@@H](O)[C@H](O)[C@H]3O)cc(O)c12 [genistin]
Output: 0

Task: Form field: reported aglycon of O=C(O)CC(=O)OC[C@H]1O[C@@H](Oc2cc(O)c3c(=O)c(-c4ccc(O)cc4)coc3c2)[C@H](O)[C@@H](O)[C@@H]1O [malonylgenistin, 6″-O-malonylgenistin]
Output: 5.2

Task: Query: aglycon; subject: CC(=O)OC[C@H]1O[C@@H](Oc2ccc3c(=O)c(-c4ccc(O)cc4)coc3c2)[C@H](O)[C@@H](O)[C@@H]1O [acetyldaidzin, 6″-O-acetyldaidzin]
Output: 47.2

----------
Tested on: β-Glucosidase derived from almond
Experiment: Reactivity toward various isoflavone glycosides (HPLC)
Format: biochemical
Parameters: unit not given here
Details: Reaction time 3 h; 55 °C, pH 4.0
Please respond with reported aglycon for every item in the list.
Please respond with just the number, no unit label.

Task: I have this compound here, COc1cc2c(=O)c(-c3ccc(O)cc3)coc2cc1O[C@@H]1O[C@H](COC(=O)CC(=O)O)[C@@H](O)[C@H](O)[C@H]1O , and I need its recorded aglycon.
Output: 0

Task: Reported aglycon for COc1cc2c(=O)c(-c3ccc(O)cc3)coc2cc1O[C@@H]1O[C@H](CO)[C@@H](O)[C@H](O)[C@H]1O : what is it?
Output: 1.9

Task: Please look up its aglycon: O=c1c(-c2ccc(O)cc2)coc2cc(O[C@@H]3O[C@H](CO)[C@@H](O)[C@H](O)[C@H]3O)ccc12
Output: 10.8

Task: What does the record list as aglycon for CC(=O)OC[C@H]1O[C@@H](Oc2ccc3c(=O)c(-c4ccc(O)cc4)coc3c2)[C@H](O)[C@@H](O)[C@@H]1O ?
Output: 0.6

Task: What value of measured aglycon is listed for O=C(O)CC(=O)OC[C@H]1O[C@@H](Oc2ccc3c(=O)c(-c4ccc(O)cc4)coc3c2)[C@H](O)[C@@H](O)[C@@H]1O ?
Output: 0

Task: State the recorded aglycon for this entry: O=C(O)CC(=O)OC[C@H]1O[C@@H](Oc2cc(O)c3c(=O)c(-c4ccc(O)cc4)coc3c2)[C@H](O)[C@@H](O)[C@@H]1O
Output: 0

----------
System: Crude diglycosidase
Experiment: Examination of temperature in the conversion into isoflavone aglycons by diglycosidase using soybean materials
Assay type: biochemical, Penicillium multicolor IAM7153
Parameters: concentration or dose not given beside the values
Conditions: 65 °C; heat treatment of enzyme: no; 6 h
Readout name: Decomposition efficiency of daidzin family in soymilk (%)
# number only, unit % dropped from output

Task: Suppose we examine the compound O=C(O)CC(=O)OC[C@H]1O[C@@H](Oc2ccc3c(=O)c(-c4ccc(O)cc4)coc3c2)[C@H](O)[C@@H](O)[C@@H]1O ; what Decomposition efficiency of daidzin family in soymilk value has been reported?
Output: 35.3

Task: # input compound: O=c1c(-c2ccc(O)cc2)coc2cc(O)ccc12 ; wanted: its Decomposition efficiency of daidzin family in soymilk
Output: 64.7

----------
Tested on: Crude diglycosidase
Test: Examination of substrate concentration in the conversion into isoflavone aglycons by diglycosidase using soybean materials;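 note: percent of the isoflavone family total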
Format: biochemical, Penicillium multicolor IAM7153
Details: soymilk, substrate concentration 5%, heat treatment of enzyme no, reaction time 6 h
Readout name: Decomposition efficiency: ratio of each glycoside/aglycon within its isoflavone family

Solved entries:
>>> endpoint_value("CC(=O)OC[C@H]1O[C@@H](Oc2ccc3c(=O)c(-c4ccc(O)cc4)coc3c2)[C@H](O)[C@@H](O)[C@@H]1O")
"not detected"
>>> endpoint_value("O=C(O)CC(=O)OC[C@H]1O[C@@H](Oc2cc(O)c3c(=O)c(-c4ccc(O)cc4)coc3c2)[C@H](O)[C@@H](O)[C@@H]1O")
"2.1%"
>>> endpoint_value("COc1cc2c(=O)c(-c3ccc(O)cc3)coc2cc1O[C@@H]1O[C@H](COC(C)=O)[C@@H](O)[C@H](O)[C@H]1O")
"not detected"
>>> endpoint_value("O=c1c(-c2ccc(O)cc2)coc2cc(O[C@@H]3O[C@H](CO)[C@@H](O)[C@H](O)[C@H]3O)cc(O)c12")
"not detected"
>>> endpoint_value("COc1cc2c(=O)c(-c3ccc(O)cc3)coc2cc1O[C@@H]1O[C@H](COC(=O)CC(=O)O)[C@@H](O)[C@H](O)[C@H]1O")
"not detected"

Here's the next entry for you.
Task: I would be grateful if you could share the reported Decomposition efficiency: ratio of each glycoside/aglycon within its isoflavone family for COc1cc2c(=O)c(-c3ccc(O)cc3)coc2cc1O .
Output: 100.0%

----------
System: Crude diglycosidase
Test: Examination of temperature in the conversion into isoflavone aglycons by diglycosidase using soybean materials
Type: biochemical, Penicillium multicolor IAM7153
Settings: 45° C., heat treatment of enzyme no, reaction time 0 h
Readout name: Decomposition efficiency of daidzin family in concentrated soybean protein (%)
Your answer should be a plain number; it is taken to be in %.

Task: Look up Decomposition efficiency of daidzin family in concentrated soybean protein: O=c1c(-c2ccc(O)cc2)coc2cc(O[C@@H]3O[C@H](CO)[C@@H](O)[C@H](O)[C@H]3O)ccc12
Output: 52.4

Task: What does the data say about its Decomposition efficiency of daidzin family in concentrated soybean protein? Entry: O=c1c(-c2ccc(O)cc2)coc2cc(O)ccc12
Output: 3.1

Task: What value of Decomposition efficiency of daidzin family in concentrated soybean protein has been recorded for this entry: CC(=O)OC[C@H]1O[C@@H](Oc2ccc3c(=O)c(-c4ccc(O)cc4)coc3c2)[C@H](O)[C@@H](O)[C@@H]1O
Output: 44.5

----------
Test system: Crude diglycosidase
Experiment: Examination of temperature in the conversion into isoflavone aglycons by diglycosidase using soybean materials
Assay type: biochemical, Penicillium multicolor IAM7153
Details: 55° C., heat treatment of enzyme no, reaction time 3 h
Readout name: Decomposition efficiency of daidzin family in concentrated soybean protein (%)
Number only, in %; omit the unit.

Task: Look up Decomposition efficiency of daidzin family in concentrated soybean protein for this compound: CC(=O)OC[C@H]1O[C@@H](Oc2ccc3c(=O)c(-c4ccc(O)cc4)coc3c2)[C@H](O)[C@@H](O)[C@@H]1O
Output: 40.6

Task: Give its Decomposition efficiency of daidzin family in concentrated soybean protein value. Item: O=c1c(-c2ccc(O)cc2)coc2cc(O)ccc12
Output: 59.4

----------
System: Crude diglycosidase
Assay: Examination of temperature in the conversion into isoflavone aglycons by diglycosidase using soybean materials
Assay type: biochemical, Penicillium multicolor IAM7153
Set-up: concentration or dose not given beside the values
Details: 55 °C; heat treatment of enzyme: no; 6 h
Readout name: Decomposition efficiency of daidzin family in roasted soy flour

>>> endpoint_value("O=c1c(-c2ccc(O)cc2)coc2cc(O[C@@H]3O[C@H](CO)[C@@H](O)[C@H](O)[C@H]3O)ccc12")
"not detected"
>>> endpoint_value("O=C(O)CC(=O)OC[C@H]1O[C@@H](Oc2ccc3c(=O)c(-c4ccc(O)cc4)coc3c2)[C@H](O)[C@@H](O)[C@@H]1O")
"not detected"
>>> endpoint_value("CC(=O)OC[C@H]1O[C@@H](Oc2ccc3c(=O)c(-c4ccc(O)cc4)coc3c2)[C@H](O)[C@@H](O)[C@@H]1O")
"26.7%"
>>> endpoint_value("O=c1c(-c2ccc(O)cc2)coc2cc(O)ccc12")
"73.3%"
